assay text: Conversion of Compound B to Compound A in the rat (intra-duodenal infusion, portal vein sampling)
Assay type: in vivo, male Sprague-Dawley rats
experimental parameters: male, Sprague-Dawley, in vivo, intra-duodenal infusion of Compound B 10 mg/kg, analyte as labelled, 24 hours, read-out: Plasma concentration in the portal vein
measurement type: concentration at 24 h (nM)

> print(dat)
                                   molecule       measurement.type  measurement.unit  result.number
1  c1ccc2cc(NC3=NC[C@@]4(CN5CCC4CC5)O3)ncc2c1  concentration at 24 h                nM              6

====

As shown below, each of these compounds has a reported concentration at 0.5 h value.
assay text: Conversion of Compound B to Compound A in the rat (intra-duodenal infusion, portal vein sampling)
Assay type: in vivo, male Sprague-Dawley rats
experimental parameters: male, Sprague-Dawley, in vivo, intra-duodenal infusion of Compound B 10 mg/kg, analyte as labelled, 0.5 hours, read-out: Plasma concentration in the portal vein
Description: The following section details the liquid chromatography with tandem mass spectrometry (LC/MS/MS)-based bioanalytical methods developed to support the analysis of the in vivo biological samples (brain, plasma, urine) from studies conducted in the dog and rat. Sample Preparation: Blood, Plasma, Serum, Urine. Plasma and blood samples were prepared as described below. […] Standard Curve Ranges. […] Standards were analyzed in duplicate. […]
measurement type: concentration at 0.5 h (nM)

> print(dat)
                                   molecule  measurement.unit  result.number
1  [O-][N+]12CCC(CC1)[C@]1(CN=C(Nc3cc4ccccc4cn3)O1)C2                nM            177
2  c1ccc2cc(NC3=NC[C@@]4(CN5CCC4CC5)O3)ncc2c1                nM            112

====

assay text: Conversion of Compound B to Compound A in the dog (IV infusion and oral gavage, crossover)
Format: in vivo, male beagle dogs
experimental parameters: male, beagle, plasma, fasted, oral gavage of Compound B 5 mg/kg
measurement type: bioavailability (%)

> print(dat)
                                   compound  result.number
1  [O-][N+]12CCC(CC1)[C@]1(CN=C(Nc3cc4ccccc4cn3)O1)C2 [Compound B]             27

====

assay text: Conversion of Compound B to Compound A in the dog (IV infusion and oral gavage, crossover)
Format: in vivo, male beagle dogs
experimental parameters: male, beagle, fed, IV infusion of Compound B 1 mg/kg, plasma
measurement type: AUC(0-inf)

> print(dat)
                                   molecule  measurement.type     result
1  [O-][N+]12CCC(CC1)[C@]1(CN=C(Nc3cc4ccccc4cn3)O1)C2        AUC(0-inf)  3.94 µM·h

====

As shown below, each of these compounds has a reported AUC(0-t) value.
assay text: Conversion of Compound B to Compound A in the dog (IV infusion and oral gavage, crossover)
Format: in vivo, male beagle dogs
experimental parameters: male, beagle, fasted, oral gavage of Compound B 5 mg/kg, plasma, analyte as labelled, read-out: AUC(0-24 h)
measurement type: AUC(0-t) (µM·h)

> print(dat)
                                   compound  measurement.type  measurement.unit  result.number
1  c1ccc2cc(NC3=NC[C@@]4(CN5CCC4CC5)O3)ncc2c1 [Compound A]          AUC(0-t)              µM·h            0.7
2  [O-][N+]12CCC(CC1)[C@]1(CN=C(Nc3cc4ccccc4cn3)O1)C2 [Compound B]          AUC(0-t)              µM·h           5.16

The measured values listed here are drawn from patent US8481555B2.
